# SYSTEM_UNDER_TEST: recombinant human extracellular domain of IGF2R (human) (UniProt P11717)
# TEST_NAME: titration ELISA on recombinant hIGF2R-ECD, direct read-out of the Alexa Fluor 647 conjugate (fluorescence intensity 700 nm), one-site specific binding fit (Examples 4.1, 6.1)
VALUE_KIND: Bmax
Lab note: jot down the number only; don't add units.

These recorded examples may help you get a feel for the data.
Prompt: Output Bmax of 13F11-13E8 conjugated to Alexa Fluor 647 (VHH, not shown: small tags and cut ends, Alexa Fluor 647 by maleimide chemistry on the C-terminal free cysteine) EVQLVESGGRLVQPGDSLRLSCAASGRTFSDNAMGWFRQAPGKERRFVAGISWAGGSTYYSDSVKGRFTISRDNAKNTVYLQMNSLKPEDTAVYYCAAGLRAWVQRMPKDYNYWGQGTQVTVSSGGGGSGGGGSGGGGSEVQLVESGGGLVQAGGSLRLSCAASRSISPMGWYRQAPGKQRELVAIMPSSGPPIYADSVQGRFTISRDNAKNTVYLQMNSLKPEDTAVYYCNVGGGYWGQGTQVTVSS
Completion: 79.2

Prompt: Output Bmax of 13E8-13F11 conjugated to Alexa Fluor 647 (VHH, not shown: small tags and cut ends, Alexa Fluor 647 by maleimide chemistry on the C-terminal free cysteine) EVQLVESGGGLVQAGGSLRLSCAASRSISPMGWYRQAPGKQRELVAIMPSSGPPIYADSVQGRFTISRDNAKNTVYLQMNSLKPEDTAVYYCNVGGGYWGQGTQVTVSSGGGGSGGGGSGGGGSEVQLVESGGRLVQPGDSLRLSCAASGRTFSDNAMGWFRQAPGKERRFVAGISWAGGSTYYSDSVKGRFTISRDNAKNTVYLQMNSLKPEDTAVYYCAAGLRAWVQRMPKDYNYWGQGTQVTVSS
Completion: 94.7

Prompt: Output Bmax of 13F11-13F11 conjugated to Alexa Fluor 647 (VHH, part only; not given: C-terminal cysteine and His tag, not shown: small tags and cut ends, Alexa Fluor 647 by maleimide chemistry on the C-terminal free cysteine) chain, part: EVQLVESGGRLVQPGDSLRLSCAASGRTFSDNAMGWFRQAPGKERRFVAGISWAGGSTYYSDSVKGRFTISRDNAKNTVYLQMNSLKPEDTAVYYCAAGLRAWVQRMPKDYNYWGQGTQVTVSSGGGGSGGGGSGGGGSEVQLVESGGRLVQPGDSLRLSCAASGRTFSDNAMGWFRQAPGKERRFVAGISWAGGSTYYSDSVKGRFTISRDNAKNTVYLQMNSLKPEDTAVYYCAAGLRAWVQRMPKDYNYWGQGTQVTVSS
Completion: 63.4

Now examine the next entry.
Prompt: Output Bmax of 13F11 conjugated to Alexa Fluor 647 (VHH, not shown: small tags and cut ends, Alexa Fluor 647 by maleimide chemistry on the C-terminal free cysteine) VHH: EVQLVESGGRLVQPGDSLRLSCAASGRTFSDNAMGWFRQAPGKERRFVAGISWAGGSTYYSDSVKGRFTISRDNAKNTVYLQMNSLKPEDTAVYYCAAGLRAWVQRMPKDYNYWGQGTQVTVSS
Completion: 20.1

These data points were gathered from patent US20220143204A1.
